Measured values drawn from patent US9624229B2 for this set.

- test system: Ba/F3 V617F cells (Homo sapiens, UniProt O60674, V617F, cells depend on it)
- Sequence (O60674 whole entry V617F): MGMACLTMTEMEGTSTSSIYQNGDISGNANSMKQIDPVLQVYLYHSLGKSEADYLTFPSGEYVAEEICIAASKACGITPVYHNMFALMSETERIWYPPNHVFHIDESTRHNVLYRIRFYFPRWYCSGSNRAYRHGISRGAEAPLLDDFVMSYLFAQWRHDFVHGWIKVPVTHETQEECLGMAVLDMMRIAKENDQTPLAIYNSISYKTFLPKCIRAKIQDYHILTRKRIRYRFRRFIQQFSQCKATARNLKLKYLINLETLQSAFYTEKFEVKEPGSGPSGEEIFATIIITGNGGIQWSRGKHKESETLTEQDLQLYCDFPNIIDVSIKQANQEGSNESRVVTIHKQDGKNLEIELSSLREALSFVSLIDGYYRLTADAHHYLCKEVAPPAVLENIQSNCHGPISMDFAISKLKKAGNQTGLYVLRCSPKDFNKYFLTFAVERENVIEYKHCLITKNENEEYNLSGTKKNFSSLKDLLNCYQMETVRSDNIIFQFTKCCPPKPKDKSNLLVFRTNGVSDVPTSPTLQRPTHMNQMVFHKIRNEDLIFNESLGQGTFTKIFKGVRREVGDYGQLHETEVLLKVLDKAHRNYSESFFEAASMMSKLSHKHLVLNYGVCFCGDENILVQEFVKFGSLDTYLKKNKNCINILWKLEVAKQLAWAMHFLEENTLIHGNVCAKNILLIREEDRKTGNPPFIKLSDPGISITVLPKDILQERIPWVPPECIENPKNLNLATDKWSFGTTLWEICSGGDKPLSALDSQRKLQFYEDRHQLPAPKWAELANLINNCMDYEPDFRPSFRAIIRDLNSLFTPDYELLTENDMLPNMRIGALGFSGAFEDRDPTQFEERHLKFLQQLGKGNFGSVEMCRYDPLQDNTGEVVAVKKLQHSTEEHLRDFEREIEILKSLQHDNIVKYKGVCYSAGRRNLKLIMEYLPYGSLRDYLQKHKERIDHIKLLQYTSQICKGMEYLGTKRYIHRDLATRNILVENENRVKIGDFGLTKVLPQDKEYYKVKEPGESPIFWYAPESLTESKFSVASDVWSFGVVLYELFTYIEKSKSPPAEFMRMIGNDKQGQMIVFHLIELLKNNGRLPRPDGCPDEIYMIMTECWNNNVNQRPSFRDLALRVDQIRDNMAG
- assay details: Proliferation assay (Cell Titer-Glo, 72 h) utilizing Ba/F3 V617F cells
- Assay type: cell-based, mouse
- measurement conditions: Ba/F3 V617F cells, proliferation, level of activity given as class symbol, read-out: IC50 (the source's name)
Measured GI50 values are reported for all entries that follow.
parameter: GI50

* CCCNc1ccc(-c2ccnc(Nc3ccc(N4C[C@@H]5C[C@H]4CO5)c(C)c3)n2)cn1 | < 1 µM
* Cc1cc(Nc2nccc(-c3cnc4c(c3)OC(C)(C)C(=O)N4)n2)ccc1N1CC2(C)CN(C)CC(C)(C1)C2 | < 1 µM
* Cc1cc(Nc2nccc(-c3ccc(N4C[C@@H]5C[C@H]4CO5)nc3)n2)ccc1N1C[C@@H]2C[C@H]1CO2 | < 1 µM
* Cc1cc(Nc2nccc(-c3cnc4c(c3)OC(C)(C)C(=O)N4)n2)ccc1N1C[C@@H]2CC[C@H]1C2 | < 1 µM
* CN1C[C@@H]2C[C@H]1CN2c1ccc(Nc2nccc(-c3cnc4c(c3)OC(C)(C)C(=O)N4)n2)cc1Cl | < 1 µM
* CC(=O)N1C[C@@H]2C[C@H]1CN2c1ccc(Nc2nccc(-c3cnc4c(c3)OC(C)(C)C(=O)N4)n2)cc1C | < 1 µM
* Cc1cc(Nc2nccc(-c3ccc(NCCCN(C)C)nc3)n2)ccc1N1C[C@@H]2C[C@H]1CO2 | < 1 µM
* CCN1C[C@@H]2C[C@H]1CN2c1ccc(Nc2nccc(-c3ccc4c(ccn4-c4ccncc4)c3)n2)cc1C | < 1 µM
* COCCN(C)c1ccc(-c2ccnc(Nc3ccc(N4C[C@@H]5C[C@H]4CN5C)c(C)c3)n2)cn1 | < 1 µM
* Cc1cc(Nc2nccc(-c3ccc(N4CCCC(C(N)=O)C4)nc3)n2)ccc1N1C[C@@H]2C[C@H]1CN2C (some centres unmarked) | 1 to 10 µM
* CC(=O)N1C[C@@H]2C[C@H]1CN2c1ccc(Nc2nccc(-c3ccc(OC4CCOCC4)nc3)n2)cc1Cl | 1 to 10 µM
* Cc1cc(Nc2nccc(-c3ccc(NCCCN(C)C)nc3)n2)ccc1N1C[C@@H]2C[C@H]1CN2C | 1 to 10 µM
* Cc1cc(Nc2nccc(-c3cnc4c(c3)CN3CCCC3C(=O)N4)n2)ccc1N1C[C@@H]2C[C@H]1CN2C (some centres unmarked) | < 1 µM
* CC1(C)Oc2cc(-c3ccnc(Nc4ccc(N5C[C@@H]6C[C@H]5CN6S(C)(=O)=O)c(Cl)c4)n3)cnc2NC1=O | < 1 µM
